Measured viability, T/C of individual entries
# Test system: 677734-321-R-J1-PDC complex spheroid viability
# RUN_DESCRIPTION: Anticancer human tumor 677734-321-R-J1-PDC patient-derived soft tissue sarcoma cell line growth inhibition [POLQ]
# TEST_CONTEXT: second compound 0.316 µM; first compound 0.000316 µM; stronger effect = lower value

Solved entries:
1) Cn1ncnc1[C@H]1c2n[nH]c(=O)c3cc(F)cc(c23)N[C@@H]1c1ccc(F)cc1 + COC1C(OC(N)=O)C(O)C(Oc2ccc3c(O)c(NC(=O)c4ccc(O)c(CC=C(C)C)c4)c(=O)oc3c2C)OC1(C)C; 106%
2) Cn1ncnc1[C@H]1c2n[nH]c(=O)c3cc(F)cc(c23)N[C@@H]1c1ccc(F)cc1 + Cc1cccc(N(C)C(=O)C2C(O)CCN2c2nc(C)cc(C(F)(F)F)c2C#N)c1; 103%
3) CC[C@@]1(O)C(=O)OCc2c1cc1n(c2=O)Cc2cc3c(CN(C)C)c(O)ccc3nc2-1 + COC1C(OC(N)=O)C(O)C(Oc2ccc3c(O)c(NC(=O)c4ccc(O)c(CC=C(C)C)c4)c(=O)oc3c2C)OC1(C)C; 105%

Next up:
Please report the recorded viability, T/C for CC[C@@]1(O)C(=O)OCc2c1cc1n(c2=O)Cc2cc3c(CN(C)C)c(O)ccc3nc2-1 + Cc1cccc(N(C)C(=O)C2C(O)CCN2c2nc(C)cc(C(F)(F)F)c2C#N)c1 .
112%

----------
# IC50 per entry
# Test system: 677734-321-R-J1-PDC complex spheroid viability
# RUN_DESCRIPTION: Anticancer human tumor 677734-321-R-J1-PDC cell line growth inhibition [POLQ];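 also: spheroids exposed to compounds for one week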
# TEST_CONTEXT: curve of first compound; second compound 1 µM

Answered cases to consult:
1. CCc1cc2c(N3CCc4c(cc(Cn5ccnc5)cc4-c4cn(C)nc4C(F)(F)F)C3=O)cc(C)nc2c(OC)n1 + COC1C(OC(N)=O)C(O)C(Oc2ccc3c(O)c(NC(=O)c4ccc(O)c(CC=C(C)C)c4)c(=O)oc3c2C)OC1(C)C; > 10 µM
2. CNCc1ccc(-c2[nH]c3cc(F)cc4c3c2CCNC4=O)cc1 + COC1C(OC(N)=O)C(O)C(Oc2ccc3c(O)c(NC(=O)c4ccc(O)c(CC=C(C)C)c4)c(=O)oc3c2C)OC1(C)C; > 10 µM

Query (molecule): CNCc1ccc(-c2[nH]c3cc(F)cc4c3c2CCNC4=O)cc1 + Nc1ccc(C#CCN(C(=O)Cc2ncc(C(F)(F)F)cc2C(F)(F)F)c2ccc(F)cc2)nn1 ; field requested: IC50
> 10 µM

----------
# Tested on: 677734-321-R-J1-PDC complex spheroid viability
# RUN_DESCRIPTION: Anticancer human tumor 677734-321-R-J1-PDC cell line growth inhibition [POLQ];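 also: spheroids exposed to compounds for one week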
# TEST_CONTEXT: curve of first compound; second compound 1 µM
pIC50: −log10 of the molar value.
METRIC: pIC50

Use these answered entries as a reference point.
1. CC(C)n1c(=O)n(C)c2cnc3cc(F)c(-c4ccc(OCCCN5CCCCC5)nc4)cc3c21 + Cc1cccc(N(C)C(=O)C2C(O)CCN2c2nc(C)cc(C(F)(F)F)c2C#N)c1; < 5.00
2. COc1cc2cc(C(=O)CCC(=O)O)sc2cc1OC + Nc1ccc(C#CCN(C(=O)Cc2ncc(C(F)(F)F)cc2C(F)(F)F)c2ccc(F)cc2)nn1; < 5.00
3. CC(=O)O[C@H]1C(=O)[C@@]2(C)[C@H]([C@H](OC(=O)c3ccccc3)[C@]3(O)C[C@H](OC(=O)[C@H](O)[C@@H](NC(=O)c4ccccc4)c4ccccc4)C(C)=C1C3(C)C)[C@]1(OC(C)=O)CO[C@@H]1C[C@@H]2O + Cc1cccc(N(C)C(=O)C2C(O)CCN2c2nc(C)cc(C(F)(F)F)c2C#N)c1; > 8.02
4. CC(=O)O[C@H]1C(=O)[C@@]2(C)[C@H]([C@H](OC(=O)c3ccccc3)[C@]3(O)C[C@H](OC(=O)[C@H](O)[C@@H](NC(=O)c4ccccc4)c4ccccc4)C(C)=C1C3(C)C)[C@]1(OC(C)=O)CO[C@@H]1C[C@@H]2O + Nc1ccc(C#CCN(C(=O)Cc2ncc(C(F)(F)F)cc2C(F)(F)F)c2ccc(F)cc2)nn1; > 8.02

Next molecule, pIC50 to be filled in.
Entry COc1cc2cc(C(=O)CCC(=O)O)sc2cc1OC + Cc1cccc(N(C)C(=O)C2C(O)CCN2c2nc(C)cc(C(F)(F)F)c2C#N)c1 has what pIC50?
< 5.00

----------
# System: 677734-321-R-J1-PDC complex spheroid viability
# RUN_DESCRIPTION: Anticancer human tumor 677734-321-R-J1-PDC cell line growth inhibition [POLQ];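 also: spheroids exposed to compounds for one week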
# TEST_CONTEXT: curve of first compound; second compound 0.0316 µM
pIC50: −log10 of the molar value.
A collection of compounds and their measured pIC50

Worked examples follow.
1) C=CCn1c(=O)c2cnc(Nc3ccc(N4CCN(C)CC4)cc3)nc2n1-c1cccc(C(C)(C)O)n1 + COC1C(OC(N)=O)C(O)C(Oc2ccc3c(O)c(NC(=O)c4ccc(O)c(CC=C(C)C)c4)c(=O)oc3c2C)OC1(C)C; < 6.00
2) CCc1cc2c(N3CCc4c(cc(Cn5ccnc5)cc4-c4cn(C)nc4C(F)(F)F)C3=O)ccnc2c(OC)n1 + COC1C(OC(N)=O)C(O)C(Oc2ccc3c(O)c(NC(=O)c4ccc(O)c(CC=C(C)C)c4)c(=O)oc3c2C)OC1(C)C; < 5.00
3) CC(C)n1c(=O)n(C)c2cnc3cc(F)c(-c4ccc(OCCCN5CCCCC5)nc4)cc3c21 + Nc1ccc(C#CCN(C(=O)Cc2ncc(C(F)(F)F)cc2C(F)(F)F)c2ccc(F)cc2)nn1; < 5.00
4) Nc1ccn(C2OC(CO)C(O)C2(F)F)c(=O)n1 (stereo not given) + Nc1ccc(C#CCN(C(=O)Cc2ncc(C(F)(F)F)cc2C(F)(F)F)c2ccc(F)cc2)nn1; > 7.50
5) CCc1c2c(nc3ccc(O)cc13)-c1cc3c(c(=O)n1C2)COC(=O)[C@]3(O)CC + Nc1ccc(C#CCN(C(=O)Cc2ncc(C(F)(F)F)cc2C(F)(F)F)c2ccc(F)cc2)nn1; > 8.50
6) CNCc1ccc(-c2[nH]c3cc(F)cc4c3c2CCNC4=O)cc1 + Nc1ccc(C#CCN(C(=O)Cc2ncc(C(F)(F)F)cc2C(F)(F)F)c2ccc(F)cc2)nn1; < 5.00
7) O=C(c1cc(Cc2n[nH]c(=O)c3ccccc23)ccc1F)N1CCN(C(=O)C2CC2)CC1 + Nc1ccc(C#CCN(C(=O)Cc2ncc(C(F)(F)F)cc2C(F)(F)F)c2ccc(F)cc2)nn1; < 5.00
8) CC1COCCN1c1cc(C2(O)CC3CCC(C2)O3)c2cnn(-c3ccn[nH]3)c2n1 (stereo not given) + Nc1ccc(C#CCN(C(=O)Cc2ncc(C(F)(F)F)cc2C(F)(F)F)c2ccc(F)cc2)nn1; > 7.50
9) CC(C)n1c(=O)n(C)c2cnc3cc(F)c(-c4ccc(OCCCN5CCCCC5)nc4)cc3c21 + COC1C(OC(N)=O)C(O)C(Oc2ccc3c(O)c(NC(=O)c4ccc(O)c(CC=C(C)C)c4)c(=O)oc3c2C)OC1(C)C; < 5.00

# context switch: different compound, same pIC50
What value of measured pIC50 is listed for CNCc1ccc(-c2[nH]c3cc(F)cc4c3c2CCNC4=O)cc1 + COC1C(OC(N)=O)C(O)C(Oc2ccc3c(O)c(NC(=O)c4ccc(O)c(CC=C(C)C)c4)c(=O)oc3c2C)OC1(C)C ?
< 5.00

----------
# System: 677734-321-R-J1-PDC complex spheroid viability
# RUN_DESCRIPTION: Anticancer human tumor 677734-321-R-J1-PDC cell line growth inhibition [POLQ]; active = viability on the fitted dose curve at most 10% of control; inactive = the rest;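 also: spheroids exposed to compounds for one week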
# TEST_CONTEXT: second compound 1 µM; first compound 1 µM
# Procedure: Multicellular complex tumor spheroid response to Polymerase (POL) inhibitors (novobiocin, ART-558, RP6685) in combination with a variety of drugs and investigational agents in selected tumor cell lines The POL inhibitors (novobiocin, ART-558, and RP6685) were evaluated both individually and in combination with standard of care and investigational anticancer small molecules within a complex spheroid model of solid tumors. . […]
I would appreciate it if you answered using one of these outcomes: 1 (active), 0 (inactive)

Fill in: this test's call for COc1cc(C2c3cc4c(cc3C(OC3OC5COC(C)OC5C(O)C3O)C3COC(=O)C23)OCO4)cc(OC)c1O (configuration not stated) + COC1C(OC(N)=O)C(O)C(Oc2ccc3c(O)c(NC(=O)c4ccc(O)c(CC=C(C)C)c4)c(=O)oc3c2C)OC1(C)C is ___
0

I would be grateful if you could indicate the recorded call for COc1cccc2c1C(=O)c1c(O)c3c(c(O)c1C2=O)CC(O)(C(=O)CO)CC3OC1CC(N)C(O)C(C)O1 (configuration not stated) + COC1C(OC(N)=O)C(O)C(Oc2ccc3c(O)c(NC(=O)c4ccc(O)c(CC=C(C)C)c4)c(=O)oc3c2C)OC1(C)C .
1

// param item: C=CC(=O)N1CCN(c2nc(=O)n(-c3c(C)ccnc3C(C)C)c3nc(-c4c(O)cccc4F)c(F)cc23)C(C)C1 (configuration not stated) + Cc1cccc(N(C)C(=O)C2C(O)CCN2c2nc(C)cc(C(F)(F)F)c2C#N)c1 ; yields the recorded call
0

Short answer needed: outcome of this test for CC1COCCN1c1cc(-c2ccnn2C)c2ccnc(-c3ccn[nH]3)c2n1 (configuration not stated) + Nc1ccc(C#CCN(C(=O)Cc2ncc(C(F)(F)F)cc2C(F)(F)F)c2ccc(F)cc2)nn1 ?
1
